Data origin, for the record: patent US11753399B2

# test_protocol: Test B: Cytotoxicity Assay (same protocol as Test A, uninfected cells)
# Format: cell-based
# experimental_context: human, uninfected MT-4 cells, CellTiter-Glo
observation_type: CC50 at 5 days

>  <smiles_notation>
CC(C)(C#Cc1ccc(-c2ccc(Cl)c3c(NS(C)(=O)=O)nn(CC(F)(F)F)c23)c([C@H](Cc2cc(F)cc(F)c2)NC(=O)Cn2nc(C(F)F)c3c2C(F)(F)[C@@H]2C[C@H]32)n1)S(=O)(=O)C1CC1

>  <result>
> 24 µM

$$$$
>  <smiles_notation>
Cn1nc(NS(C)(=O)=O)c2c(Cl)ccc(-c3ccc(C#CC(C)(C)S(=O)(=O)C4CC4)nc3[C@H](Cc3cc(F)cc(F)c3)NC(=O)Cn3cc(C(F)(F)F)nc3C3CC3)c21

>  <result>
> 50 µM

$$$$
>  <smiles_notation>
Cn1nc(NS(C)(=O)=O)c2c(Cl)ccc(-c3ccc(C#CC(C)(C)S(=O)(=O)C4CC4)nc3[C@H](Cc3cc(F)cc(F)c3)NC(=O)Cn3cnc4ccccc43)c21

>  <result>
30.7 µM

$$$$
>  <smiles_notation>
Cn1nc(NS(C)(=O)=O)c2c(Cl)ccc(-c3ccc(C#CC(C)(C)S(=O)(=O)C4CC4)nc3[C@H](Cc3cc(F)cc(F)c3)NC(=O)Cn3ccnn3)c21

>  <result>
> 57.1 µM

$$$$
>  <smiles_notation>
CC(C)(C#Cc1ccc(-c2ccc(Cl)c3c(NS(=O)(=O)C4CC4)nn(C4COC4)c23)c([C@H](Cc2cc(F)cc(F)c2)NC(=O)Cn2nc(C(F)(F)F)c3c2C(F)(F)[C@@H]2C[C@H]32)n1)S(=O)(=O)C1CC1

>  <result>
> 50 µM

$$$$
>  <smiles_notation>
Cn1nc(NS(C)(=O)=O)c2c(Cl)ccc(-c3ccc(C#CC(C)(C)S(=O)(=O)C4CC4)nc3[C@H](Cc3cc(F)cc(F)c3)NC(=O)c3ccn[nH]3)c21

>  <result>
22.2 µM

$$$$
>  <smiles_notation>
CC1(S(=O)(=O)Nc2nn(CC(F)(F)F)c3c(-c4ccc(C#CC(C)(C)S(=O)(=O)C5CC5)nc4[C@H](Cc4cc(F)cc(F)c4)NC(=O)Cn4nc(C(F)F)c5c4C(F)(F)CCC5(F)F)ccc(Cl)c23)CC1

>  <result>
> 57.1 µM

$$$$
>  <smiles_notation>
Cn1nc(Nc2nnc(C(C)(C)O)o2)c2c(Cl)ccc(-c3ccc(C#CC(C)(C)S(=O)(=O)C4CC4)nc3[C@H](Cc3cc(F)cc(F)c3)NC(=O)Cn3nc(C(F)(F)F)c4c3C(F)(F)[C@@H]3C[C@H]43)c21

>  <result>
21.8 µM

$$$$
>  <smiles_notation>
CCS(=O)(=O)Nc1nn(CC(F)F)c2c(-c3ccc(C#CC(C)(C)S(=O)(=O)C4CC4)nc3[C@H](Cc3cc(F)cc(F)c3)NC(=O)Cn3nc(C(F)(F)F)c4c3C(F)(F)[C@@H]3C[C@H]43)ccc(Cl)c12

>  <result>
> 57.1 µM

$$$$
>  <smiles_notation>
Cn1nc(NS(C)(=O)=O)c2c(Cl)ccc(-c3ccc(C#CC(C)(C)S(=O)(=O)C4CC4)nc3[C@H](Cc3cc(F)cc(F)c3)NC(=O)Cn3nc(C(F)F)c4c3C(F)(F)CCC4(F)F)c21

>  <result>
> 57.1 µM

$$$$
>  <smiles_notation>
CC(C)(C#Cc1ccc(-c2ccc(F)c3c(NS(=O)(=O)C4CC4)nn(CC(F)F)c23)c([C@H](Cc2cc(F)cc(F)c2)NC(=O)Cn2nc(C(F)(F)F)c3c2C(F)(F)[C@@H]2C[C@H]32)n1)S(=O)(=O)C1CC1

>  <result>
> 57.1 µM

$$$$
>  <smiles_notation>
CC(C)(C#Cc1ccc(-c2ccc(Cl)c3c(NS(=O)(=O)C4CC4)nn(CC(F)(F)F)c23)c([C@H](Cc2cc(F)cc(F)c2)NC(=O)Cn2nc(C(F)(F)F)c3c2C(F)(F)[C@@H]2C[C@H]32)n1)S(=O)(=O)C1CC1

>  <result>
> 57.1 µM

$$$$
>  <smiles_notation>
Cn1nc(NS(C)(=O)=O)c2c(Cl)ccc(-c3ccc(C#CC(C)(C)S(=O)(=O)C4CC4)nc3[C@H](Cc3cc(F)cc(F)c3)NC(=O)Cn3nc(C(F)F)cc3C(F)F)c21

>  <result>
> 57.1 µM

$$$$
>  <smiles_notation>
CCS(=O)(=O)Nc1nn(CC(F)F)c2c(-c3ccc(C#CC(C)(C)S(=O)(=O)C4CC4)nc3[C@H](Cc3cc(F)cc(F)c3)NC(=O)Cn3nc(C(F)F)c4c3C(F)(F)[C@@H]3C[C@H]43)cccc12

>  <result>
51.2 µM

$$$$
>  <smiles_notation>
CC(C)(C#Cc1ccc(-c2ccc(Cl)c3c(NS(C)(=O)=O)nn(C4COC4)c23)c([C@H](Cc2cc(F)cc(F)c2)NC(=O)Cn2nc(C(F)(F)F)c3c2C(F)(F)[C@@H]2C[C@H]32)n1)S(=O)(=O)C1CC1

>  <result>
> 57.1 µM

$$$$
>  <smiles_notation>
Cn1nc(NS(C)(=O)=O)c2c(Cl)ccc(-c3ccc(C#CC(C)(C)S(=O)(=O)C4CC4)nc3[C@H](Cc3cc(F)cc(F)c3)NC(=O)Cc3nc4ccccc4[nH]3)c21

>  <result>
29.8 µM

$$$$
>  <smiles_notation>
Cn1nc(NS(=O)(=O)C2(C)CC2)c2c(Cl)ccc(-c3ccc(C#CC(C)(C)S(=O)(=O)C4CC4)nc3[C@H](Cc3cc(F)cc(F)c3)NC(=O)Cn3nc(C(F)F)c4c3C(F)(F)CCC4(F)F)c21

>  <result>
> 57.1 µM

$$$$
>  <smiles_notation>
Cn1nc(NS(=O)(=O)C2CC2)c2cccc(-c3ccc(C#CC(C)(C)S(=O)(=O)C4CC4)nc3[C@H](Cc3cc(F)cc(F)c3)NC(=O)Cn3nc(C(F)F)c4c3C(F)(F)[C@@H]3C[C@H]43)c21

>  <result>
> 57.1 µM

$$$$
